- Tested on: β-galactosidase in CMV-LacZ C2C12 myotubes
- assay_info: CMV-LacZ secondary screen in C2C12 myotubes (β-Gal stabilizing assay)
- Type: cell-based, mouse
- assay_conditions: 5 uM; C2C12 CMV-LacZ myotubes; fold relative to DMSO
reported_endpoint: CMV-LACZ in Myotubes, signal relative to DMSO
Answer as a number with no unit attached.

molecule	quantitative_result
Cc1[nH]c2ccc(F)cc2c1CCN(Cc1ccco1)C(=S)NC(C)(C)C	1.0268

Query block: Provide measured CMV-LACZ in Myotubes, signal relative to DMSO value, entry: CCc1nnc(NC(=O)c2ccc(S(=O)(=O)NCC(C)C)cc2)s1
Result block: 0.9489

Query block: Provide measured CMV-LACZ in Myotubes, signal relative to DMSO value, entry: Cc1ccc(Cn2nnc3c(=O)[nH]c(C4CCCN(C(=O)c5ccco5)C4)nc32)cc1 (stereo not drawn)
Result block: 0.9795

Query block: Provide measured CMV-LACZ in Myotubes, signal relative to DMSO value, entry: O=C(Nc1ccccc1Cl)C1CCCN1C(=O)OCc1ccccc1 (stereo not drawn)
Result block: 0.9872

Query block: Provide measured CMV-LACZ in Myotubes, signal relative to DMSO value, entry: NC(=O)c1cccnc1Oc1ccc(Cl)cc1Cl
Result block: 0.8844

Query block: Provide measured CMV-LACZ in Myotubes, signal relative to DMSO value, entry: COc1ccccc1C(=O)OCc1ccc2sc(C)nc2c1
Result block: 1.2236

Query block: Provide measured CMV-LACZ in Myotubes, signal relative to DMSO value, entry: Cc1cc(NC(=O)CN2C(=O)/C(=C/c3ccccc3F)SC2=S)no1
Result block: 0.9354

Query block: Provide measured CMV-LACZ in Myotubes, signal relative to DMSO value, entry: O=C(Nc1cc(-c2nc3ccccc3s2)ccc1Cl)c1ccc2c(c1)OCO2
Result block: 1.0253

Query block: Provide measured CMV-LACZ in Myotubes, signal relative to DMSO value, entry: O=C(O)c1cc(-c2ccccc2Cl)n(-c2cccc(Cl)c2)n1
Result block: 0.7726

Query block: Provide measured CMV-LACZ in Myotubes, signal relative to DMSO value, entry: COc1ccc(Cl)cc1NC(=O)CC(=O)Nc1cc(Cl)ccc1OC
Result block: 1.088

Query block: Provide measured CMV-LACZ in Myotubes, signal relative to DMSO value, entry: CC1CCCCC1NC(=O)CSc1nnc(COc2ccc(Cl)cc2)o1 (stereo not drawn)
Result block: 1.2519

Query block: Provide measured CMV-LACZ in Myotubes, signal relative to DMSO value, entry: COC(=O)c1ccc(C2C(C(=O)c3cc4ccccc4o3)=C(O)C(=O)N2CCN2CCOCC2)cc1 (stereo not drawn)
Result block: 1.074

Query block: Provide measured CMV-LACZ in Myotubes, signal relative to DMSO value, entry: COc1ccc(S(=O)(=O)Nc2ccc(S(=O)(=O)Nc3nccs3)cc2)cc1
Result block: 0.9553

* * *

The following molecules are listed with their measured CMV-LACZ in Myoblasts (β-galactosidase activity relative to DMSO) values.
- Test system: β-galactosidase in CMV-LacZ C2C12 myoblasts
- assay_info: CMV-LacZ secondary screen in C2C12 myoblasts (β-Gal stabilizing assay)
- Format: cell-based, mouse
- assay_conditions: 5 uM; CMV-LacZ C2C12 myoblasts
Answer as a number with no unit attached.

Consider the reported CMV-LACZ in Myoblasts (β-galactosidase activity relative to DMSO) for these molecules:
molecule	quantitative_result
Cn1c(O)c(C(C#N)=C2N=c3ccccc3=N2)c2ccccc21	2.0402
CCCN(C(=O)c1ccc(S(=O)(=O)N2CCCC2)cc1)C1CCS(=O)(=O)C1 (stereo not drawn)	0.8819
O=CN1CCN(C(=O)CC(c2ccccc2)c2cc(Br)ccc2O)CC1 (stereo not drawn)	0.8886
O=C(N/N=C/c1c[nH]c2ccccc12)c1cc(Cl)ccc1O	1.0605

Query block: Provide measured CMV-LACZ in Myoblasts (β-galactosidase activity relative to DMSO) value, entry: CCc1c(C)sc(NC(=O)c2ccco2)c1C#N
Result block: 0.8408

Query block: Provide measured CMV-LACZ in Myoblasts (β-galactosidase activity relative to DMSO) value, entry: O=C(c1ccccc1)N1CCN(S(=O)(=O)c2cccs2)CC1
Result block: 0.9910

Query block: Provide measured CMV-LACZ in Myoblasts (β-galactosidase activity relative to DMSO) value, entry: CNC(=O)CSc1nnc(-c2ccc3c(c2)OCO3)n1C
Result block: 1.1129

Query block: Provide measured CMV-LACZ in Myoblasts (β-galactosidase activity relative to DMSO) value, entry: Cc1cccc(Cn2cnc3c(nnn3Cc3ccc(Cl)cc3)c2=O)c1
Result block: 0.9882

Query block: Provide measured CMV-LACZ in Myoblasts (β-galactosidase activity relative to DMSO) value, entry: N/C(=N\OC(=O)c1cccc(C(F)(F)F)c1)c1cnccn1
Result block: 0.9282

Query block: Provide measured CMV-LACZ in Myoblasts (β-galactosidase activity relative to DMSO) value, entry: O=C(O)C(Cc1ccc(O)cc1)N1C(=O)c2ccccc2C1=O (stereo not drawn)
Result block: 1.0941

Query block: Provide measured CMV-LACZ in Myoblasts (β-galactosidase activity relative to DMSO) value, entry: CCN(CC(=O)NCc1cccs1)C(=O)COc1ccc(C(N)=O)cc1
Result block: 1.0262

Query block: Provide measured CMV-LACZ in Myoblasts (β-galactosidase activity relative to DMSO) value, entry: O=C(CSc1nnc2c(n1)[nH]c1ccccc12)NCc1ccccc1F
Result block: 1.1655
